Attribution: ChEMBL document CHEMBL5291721

Could you please report measured AC50 for the items listed next?
- Tested on: UniProt P06401
- Sequence (P06401 whole entry): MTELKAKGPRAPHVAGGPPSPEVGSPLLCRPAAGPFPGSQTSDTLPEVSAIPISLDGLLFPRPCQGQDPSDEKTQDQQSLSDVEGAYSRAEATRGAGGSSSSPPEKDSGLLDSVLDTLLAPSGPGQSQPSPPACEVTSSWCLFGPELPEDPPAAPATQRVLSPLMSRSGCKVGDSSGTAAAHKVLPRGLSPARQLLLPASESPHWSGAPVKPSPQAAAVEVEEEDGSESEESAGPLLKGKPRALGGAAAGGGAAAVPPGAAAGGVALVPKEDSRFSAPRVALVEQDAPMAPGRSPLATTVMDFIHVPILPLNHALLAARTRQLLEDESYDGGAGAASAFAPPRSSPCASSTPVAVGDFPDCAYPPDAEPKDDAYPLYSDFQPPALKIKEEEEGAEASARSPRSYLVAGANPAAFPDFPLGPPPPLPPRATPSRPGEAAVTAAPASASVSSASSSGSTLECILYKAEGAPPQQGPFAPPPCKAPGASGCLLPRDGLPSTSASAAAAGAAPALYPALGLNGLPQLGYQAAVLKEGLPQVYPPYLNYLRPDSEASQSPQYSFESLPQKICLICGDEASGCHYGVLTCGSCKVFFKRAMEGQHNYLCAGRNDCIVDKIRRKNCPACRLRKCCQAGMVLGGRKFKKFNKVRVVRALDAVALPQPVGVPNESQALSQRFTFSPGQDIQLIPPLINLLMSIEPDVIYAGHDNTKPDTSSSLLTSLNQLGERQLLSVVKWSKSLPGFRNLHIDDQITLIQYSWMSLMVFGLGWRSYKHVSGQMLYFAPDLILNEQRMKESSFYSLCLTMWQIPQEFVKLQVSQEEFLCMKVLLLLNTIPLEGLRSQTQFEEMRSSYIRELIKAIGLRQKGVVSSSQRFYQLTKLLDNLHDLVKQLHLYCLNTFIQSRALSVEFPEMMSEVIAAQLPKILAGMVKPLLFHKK
- Type: functional

Study these solved cases before continuing.
O=C(O)CCNC(=O)c1ccccc1 | > 30 µM
CCCCCCCCCCCCCCCCCCCCCC(=O)Nc1ccn([C@@H]2O[C@H](CO)[C@@H](O)[C@@H]2O)c(=O)n1 | > 30 µM
COc1ccc(-c2noc(CC(=O)O)c2-c2ccc(OC)cc2)cc1 | > 30 µM
CC[C@@H]([C@H](C)O)n1ncn(-c2ccc(N3CCN(c4ccc(OC[C@@H]5CO[C@@](Cn6cncn6)(c6ccc(F)cc6F)C5)cc4)CC3)cc2)c1=O | > 30 µM
Oc1ccc2c(c1)CC[C@H](c1ccccc1)[C@@H]2c1ccc(OCCN2CCCC2)cc1 | > 10 µM
COc1cc2c(cc1OC)C(CCc1ccc(Cl)cc1)N(C)CC2 (stereo not drawn) | > 30 µM
NC(=O)CN1CCCC1=O | > 30 µM

Please look at the following compound next.
Data request: Given the entry O=C1CN(/N=C/c2ccc(-c3ccc([N+](=O)[O-])cc3)o2)C(O)=N1 , what AC50 was observed with UniProt P06401?
Data returned: > 10 µM
